So I've got a bunch of compounds here, and I need their Plant response rating, Nightshade values.
system: eastern black nightshade; assay: Test C pre-/postemergence herbicide test; type: in vivo, Solanum ptycanthum; conditions: 62 g ai/ha; preemergence; scale 0 to 100
Lab note: write the figure by itself, no unit.

Kindly indicate its recorded Plant response rating, Nightshade. Item: `CCN(CC)C(=O)c1cccc(NC(=O)c2nn(C(C)(C)C)nc2C)c1`
95

Respond only with Plant response rating, Nightshade recorded for `CCNC(=O)c1cccc(NC(=O)c2nn(C(C)(C)CC)nc2CC)c1`
95

Give reported Plant response rating, Nightshade value for CCC1=NN(C(C)(C)C)CC1C(=O)Nc1cc(C(=O)N2CC=CC2)ccc1F (racemic)
60

Identify the reported Plant response rating, Nightshade for the following entry. `CCc1nn(C(C)(C)C)cc1C(=O)Nc1cccc(C(C)=NO)c1`
80

For CCN1N=C(C(C)(C)C)CC1C(=O)Nc1cc(C(=O)N2CCCC2)ccc1F (racemic) , write its Plant response rating, Nightshade.
70

Note Plant response rating, Nightshade for the compound shown: `CCn1nc(C(C)(C)C)cc1C(=O)Nc1cncc(C(=O)N(C)C)n1`
95

* * *

tested on: johnsongrass; test: Test C pre-/postemergence herbicide test; type: in vivo, Sorghum halepense; conditions: 125 g ai/ha; scale 0 (no effect) to 100 (complete control); visual, 12 to 14 days; preemergence
Measurement kind: Plant response rating, Johnsongrass
// response body must contain only the number

Give Plant response rating, Johnsongrass for `CCc1nn(C(C)(C)C)cc1C(=O)Nc1cccc(C(C)=NO)c1`
20

Report measured Plant response rating, Johnsongrass; entry is `CCCn1nc(C(C)(C)C)cc1C(=O)Nc1cccc(C(=O)NCC)c1`
65

For the compound `CCn1nc(C(C)(C)C)cc1C(=O)Nc1cccc(C#N)c1` , report Plant response rating, Johnsongrass.
30

Provide Plant response rating, Johnsongrass value for the following compound: `CCc1nc(C(C)(C)C)sc1C(=O)Nc1cccc(C(=O)NCC2CC2)n1`
20

Return reported Plant response rating, Johnsongrass. Input compound: `CCn1nc(C(C)(C)C)cc1C(=O)Nc1ccc(F)c(C(=O)NCCF)c1`
50

# return recorded Plant response rating, Johnsongrass for entry `CCn1nc(C(C)(C)C)cc1C(=O)Nc1cccc(S(=O)(=O)C(F)(F)F)c1`
40

* * *

system: common ragweed; assay: Test C pre-/postemergence herbicide test; format: in vivo, Ambrosia elatior; details: 62 g ai/ha; preemergence
For each entry below, report its Plant response rating (0 = no effect, 100 = complete control), Ragweed value.
Please give only the number in your answer, with no unit.

Provide Plant response rating (0 = no effect, 100 = complete control), Ragweed value for the following compound: CCn1nc(C(C)(C)C)cc1C(=O)Nc1cccc(C(C)=NO)c1 [Compound 108]
20

Output Plant response rating (0 = no effect, 100 = complete control), Ragweed of CCn1nc(C(C)(C)C)cc1C(=O)Nc1cc(C#N)ccc1F [Compound 140]
0

Determine its reported Plant response rating (0 = no effect, 100 = complete control), Ragweed: CCn1nc(C(C)(C)C)cc1C(=O)Nc1ccc(F)c(C(=O)NCCF)c1 [Compound 60]
10

Provide only the value of recorded Plant response rating (0 = no effect, 100 = complete control), Ragweed for CCn1nc(C(C)(C)C)cc1C(=O)Nc1cccc(C#N)c1 [Compound 139]
50

Name the recorded Plant response rating (0 = no effect, 100 = complete control), Ragweed of the compound listed here: CCC(=NO)c1cccc(NC(=O)c2cc(C(C)(C)C)nn2C)c1 [Compound 118]
0
